Origin of the recorded values: the supplement of paper PMC8967900

Tested on: KASUMI-9
TEST_METHOD_NOTES: selective drug sensitivity score (sDSS, relative to normal bone marrow) (sDSS (score)); higher = more potent and effective on the cell line relative to normal bone marrow cells;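 note: ALL cell lines in 384-well plates, five doses spanning 10,000-fold, each plate scaled between vehicle and 100 µmol/L benzalkonium chloride controls, sDSS an adapted area-under-curve metric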
COND: 72 h
ENDPOINT_LABEL: selective drug sensitivity score
// no unit, no text: just the number

The reported value for O=C(O)CC1CC(c2ccccc2)=NO1 (configuration not stated) [VGX-1027] (top concentration 10000 nM) in terms of selective drug sensitivity score is -0.04

// recorded selective drug sensitivity score for CN(C)C1CCN(C(=O)c2ccc(NC(=O)Nc3ccc(-c4nc(N5CCOCC5)nc(N5CCOCC5)n4)cc3)cc2)CC1 [Gedatolisib] (top concentration 1000 nM) : 9.36

Recorded result, C[C@H](Nc1ncnc2nc[nH]c12)c1cc2cccc(Cl)c2c(=O)n1-c1ccccc1 [Duvelisib] (top concentration 500 nM) , selective drug sensitivity score: 3.36

The compound Cc1cc(Nc2nc(N[C@@H](C)c3ncc(F)cn3)ncc2Cl)[nH]n1 [AZD1480] (top concentration 1000 nM) showed selective drug sensitivity score equal to -0.68

For reference, reported selective drug sensitivity score for O=C(Nc1cc(Cl)cc2c1[nH]c1cnccc12)c1cccnc1 [PS-1145] (top concentration 25000 nM) stands at 0.44

selective drug sensitivity score recorded for this compound, CC(C)N(CCCNC(=O)Nc1ccc(C(C)(C)C)cc1)C[C@H]1O[C@@H](n2cc(Br)c3c(N)ncnc32)[C@H](O)[C@@H]1O [SGC0946] (top concentration 10000 nM) , is 0.28

Documented selective drug sensitivity score of COc1cc(CCc2cc(NC(=O)c3ccc(N4CC(C)NC(C)C4)cc3)n[nH]2)cc(OC)c1 (configuration not stated) [AZD4547] (top concentration 1000 nM) : -0.14

Kindly note the recorded selective drug sensitivity score for O=C(NOCCO)c1ccc2cncn2c1Nc1ccc(I)cc1F [GDC-0623] (top concentration 2500 nM) , which is -0.4

Form: compound = C[C@@H]1COCCN1c1cc(C2([S@](C)(=N)=O)CC2)nc(-c2cc[nH]c3nccc2-3)n1 [AZD6738] (top concentration 25000 nM) ; selective drug sensitivity score = 8.38

For this compound ( Cc1nc(NC(=O)N2CCC[C@H]2C(N)=O)sc1-c1ccnc(C(C)(C)C(F)(F)F)c1 [Alpelisib] (top concentration 2500 nM) ), measured selective drug sensitivity score is 1.18

Please fill in: selective drug sensitivity score reported for COc1cc(C)c(/C=C/C(C)=C/C=C/C(C)=C/C(=O)O)c(C)c1C [Acitretin] (top concentration 10000 nM) = 2.9

Recorded selective drug sensitivity score (compound CO[C@H]1C[C@@H]2CC[C@@H](C)[C@@](O)(O2)C(=O)C(=O)N2CCCC[C@H]2C(=O)O[C@H]([C@H](C)C[C@@H]2CC[C@@H](O)[C@H](OC)C2)CC(=O)[C@H](C)/C=C(\C)[C@@H](O)[C@@H](OC)C(=O)[C@H](C)C[C@H](C)/C=C/C=C/C=C/1C [Sirolimus] (top concentration 100 nM) ): 4.74

====

Tested on: P12-ICHIKAWA
TEST_METHOD_NOTES: selective drug sensitivity score (sDSS, relative to normal bone marrow) (sDSS (score)); higher = more potent and effective on the cell line relative to normal bone marrow cells
COND: 72 h
selective drug sensitivity score of 0 or higher: condition met. Under 0: condition not met.

Entry CCS(=O)(=O)N1CC(CC#N)(n2cc(-c3ncnc4[nH]ccc34)cn2)C1 [Baricitinib] (top concentration 2500 nM) : is its selective drug sensitivity score no less than 0?
condition not met

Is reported selective drug sensitivity score greater than or equal to 0 here: CN(Cc1cnc2nc(N)nc(N)c2n1)c1ccc(C(=O)N[C@@H](CCC(=O)O)C(=O)O)cc1 [Methotrexate] (top concentration 5000 nM)
condition met

For this compound, is measured selective drug sensitivity score 0 or higher? CCNC(=O)C[C@@H]1N=C(c2ccc(Cl)cc2)c2cc(OC)ccc2-n2c(C)nnc21 [Molibresib] (top concentration 10000 nM)
condition met

Determine whether this compound has selective drug sensitivity score no lower than 0: Cc1ncc(Cl)cc1NCc1ccc(C(=O)N[C@@H](CC2CCCC2)C(=O)NC2CC2)s1 (top concentration 5000 nM)
condition not met

Assess whether reported selective drug sensitivity score for CCCCCCCCCCCCCCCCOP(=O)([O-])OCC[N+](C)(C)C [Miltefosine] (top concentration 100000 nM) sits at 0 or higher.
condition met
